System: PC15
ASSAY_PROTOCOL: qHTS profiling for inhibitors of Plasmodium falciparum proliferation (AID 504749); also: nearly all actives have a fitted effect of over 60% in size
ASSAY_SETUP: P. falciparum in erythrocytes, SYBR Green DNA, 72 h; series mostly up to 28.7 µM
Records with an inconclusive call do not appear. Calls of active or inactive are those of the source. Calls follow the shape of the dose curve; as a rule, active = well fitted inhibition curve with a large enough effect; inconclusive = small, poorly fitted or top-dose-only effect; inactive = flat fitted curve, though single readings scatter.
Hi! Could you answer with just one of these? True = active, False = inactive

These recorded examples may help you get a feel for the data.
O=C(NNCS(=O)(=O)O)c1ccncc1; False
O=C1N=C2SCCN2C(=O)C1Cc1ccc(Cl)cc1 (stereo unspecified); False
O=P(O)(O)OC[C@H](O)CO; False

Task: What did the test return for CC(=O)Nc1ccc(OC(C)=O)cc1 ?
Result: False

Task: What did the test return for CC1=CCC2CC1C2(C)C (stereo unspecified) ?
Result: False

Task: What did the test return for CC(C)Cc1ccc([C@@H](C)C(=O)NS(C)(=O)=O)cc1 ?
Result: False

Task: What did the test return for CC/C(=C(/CC)c1ccc(OP(=O)(O)O)cc1)c1ccc(OP(=O)(O)O)cc1 ?
Result: False

Task: What did the test return for O=C(O)CCCC/C=C(\c1ccccc1)c1cccnc1 ?
Result: False

Task: What did the test return for Cc1c(Cl)cccc1Nc1ncccc1C(=O)O ?
Result: False

Task: What did the test return for CC(C)c1nc(N(C)S(C)(=O)=O)nc(-c2ccc(F)cc2)c1/C=C/C(O)CC(O)CC(=O)O (stereo unspecified) ?
Result: False

Task: What did the test return for CC(=O)Nc1ccc(OC(=O)c2ccccc2O)cc1 ?
Result: False

Task: What did the test return for CC(C)CCC[C@@H](C)[C@H]1CC[C@H]2[C@@H]3CC[C@@H]4C[C@H](O)CC[C@]4(C)[C@H]3CC[C@]12C ?
Result: False

Task: What did the test return for O=C(c1cc2ccccc2o1)N1CCN(Cc2ccccc2)CC1 ?
Result: False

Task: What did the test return for F[Si-2](F)(F)(F)(F)F ?
Result: False

Task: What did the test return for C=CC(=O)O ?
Result: False

Task: What did the test return for CCCCC/C=C\C/C=C\C/C=C\CCCCC(=O)O ?
Result: False

###

System: PC26
ASSAY_PROTOCOL: qHTS profiling for inhibitors of Plasmodium falciparum proliferation (AID 504749); also: nearly all actives have a fitted effect of over 60% in size
ASSAY_SETUP: P. falciparum in erythrocytes, SYBR Green DNA, 72 h; series mostly up to 28.7 µM
Results filed as inconclusive are left out. Active and inactive are the calls of the source. Calls come from the whole dose curve; as a rule, active = well fitted inhibition curve with a large enough effect; inconclusive = small, poorly fitted or top-dose-only effect; inactive = flat fitted curve, though single readings scatter.
Hi! Could you answer with just one of these? 1.0 (active), 0.0 (inactive)

These recorded examples may help you get a feel for the data.
Nc1ncnc2c1ncn2CCOCP(=O)(O)O; 0.0
CC(C)CCC[C@@H](C)[C@H]1CC[C@H]2[C@@H]3CC=C4C[C@@H](O)CC[C@]4(C)[C@H]3CC[C@]12C; 0.0

Task: What did the test return for Cn1cc(NC(=O)c2cc(NC(=O)c3cc(NC=O)cn3C)cn2C)cc1C(=O)NCCC(=N)N ?
Result: 1.0

Task: What did the test return for O=C(O)CCC(=O)c1ccc(-c2ccccc2)cc1 ?
Result: 0.0

Task: What did the test return for Cc1ncc(C[n+]2csc(CCOP(=O)(O)O)c2C)c(N)n1 ?
Result: 0.0

Task: What did the test return for CC(C)[C@H](N)C(=O)OCC(CO)OCn1cnc2c(=O)[nH]c(N)nc21 (stereo partly specified) ?
Result: 0.0

Task: What did the test return for CCCCC ?
Result: 0.0

Task: What did the test return for O=P(O)(O)OC[C@H](O)CO ?
Result: 0.0

Task: What did the test return for Cc1ccc(S(=O)(=O)NCl)cc1 ?
Result: 0.0

Task: What did the test return for c1ccc2ccccc2c1 ?
Result: 0.0

Task: What did the test return for CC(C)O ?
Result: 0.0

Task: What did the test return for O=P(O)(O)CP(=O)(O)O ?
Result: 0.0

###

ASSAY_PROTOCOL: Cell Viability - LYMP2-015 (AID 971);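 also: cells exposed to compound for 24 h; 0% = DMSO only and full effect = 92 µM tetraoctylammonium bromide; nearly all actives have a fitted effect of over 55% in size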
ASSAY_SETUP: LYMP2-015 lymphoblastoid cell viability; series mostly up to 92.2 µM
Records with an inconclusive call do not appear. Calls of active or inactive are those of the source. Calls come from the whole dose curve; as a rule, active = well fitted cell-killing curve with a large enough effect; inconclusive = small, poorly fitted or top-dose-only effect; inactive = flat fitted curve, though single readings scatter.
PROPERTY_MEASURED: outcome

Illustrative cases are given below, each with its answer.
CC(C)(C)CC(C)(C)c1ccc(OCCO)cc1; inactive
CC(C)O; inactive
C[C@H](CCC(=O)O)[C@H]1CC[C@H]2[C@@H]3CC[C@@H]4C[C@H](O)CC[C@]4(C)[C@H]3C[C@H](O)[C@]12C; inactive
Cc1ncc[nH]1; inactive
COC(=O)c1ccccc1O; inactive
C/C=C/C=C/C(=O)O; inactive
CC1=CC(=O)NS(=O)(=O)O1; inactive

Task: Please look up its outcome: OCl
Result: inactive

###

Test system: P93_24
ASSAY_PROTOCOL: qHTS profiling for inhibitors of Plasmodium falciparum proliferation (AID 504749); also: nearly all actives have a fitted effect of over 60% in size
ASSAY_SETUP: P. falciparum in erythrocytes, SYBR Green DNA, 72 h; series mostly up to 28.7 µM
Protocol: NIH National Institute of Allergy and Infectious Diseases [NIAID] NIH Chemical Genomics Center [NCGC] […] Because mature erythrocytes lack DNA, only Plasmodium-derived DNA is detected. NCGC Assay Protocol Summary: The SYBR Green viability assay was adapted from a method described previously (Plouffe et al., 2008). […] The following morning, fluorescence intensity at 485(14) nm excitation and 535(25) nm emission wavelengths was measured on an EnVision (Perkin Elmer) plate reader. […]
Records with an inconclusive call do not appear. Calls of active or inactive are those of the source. Calls follow the shape of the dose curve; as a rule, active = well fitted inhibition curve with a large enough effect; inconclusive = small, poorly fitted or top-dose-only effect; inactive = flat fitted curve, though single readings scatter.
Hi! Could you answer with just one of these? true for active, false for inactive

These recorded examples may help you get a feel for the data.
COc1ccc(/C=C/C(=O)OCCC(C)C)cc1; false
CN(CCO)CC(O)Cn1cnc2c1c(=O)n(C)c(=O)n2C (stereo not drawn) (tested in a mixture with another compound); false
NC(=S)N=Nc1ccc(NN=C(N)N)cc1; true
COC(=O)[C@@H](N)CS; false
O=C(NNCS(=O)(=O)O)c1ccncc1; false
CCCCCCCCCC(=O)NO; false
C=C(C)C1CC=C(C)CC1 (stereo not drawn); false
O=C(O)Cc1cc(I)c(Oc2ccc(O)c(I)c2)c(I)c1; false

Task: What did the test return for CCCCCCCCCCCCCC(=O)OCC(COP(=O)([O-])OCC[N+](C)(C)C)OC(=O)CCCCCCCCCCCCC (stereo not drawn) ?
Result: false

Task: What did the test return for CC(CNC(=O)c1cccnc1)NC(=O)c1cccnc1 (stereo not drawn) ?
Result: false

Task: What did the test return for OB(O)O ?
Result: false

Task: What did the test return for ClC(Cl)Cl ?
Result: false

Task: What did the test return for O=P(O)(O)OC[C@H](O)CO ?
Result: false

###

Tested on: AA1029
ASSAY_PROTOCOL: qHTS profiling for inhibitors of Plasmodium falciparum proliferation (AID 504749); also: nearly all actives have a fitted effect of over 60% in size
ASSAY_SETUP: P. falciparum in erythrocytes, SYBR Green DNA, 72 h; series mostly up to 28.7 µM
Results filed as inconclusive are left out. The source made the active and inactive calls. Calls come from the whole dose curve; as a rule, active = well fitted inhibition curve with a large enough effect; inconclusive = small, poorly fitted or top-dose-only effect; inactive = flat fitted curve, though single readings scatter.
Hi! Could you answer with just one of these? TRUE for active, FALSE for inactive

These recorded examples may help you get a feel for the data.
Cc1cc2nc3c(=O)[nH]c(=O)nc-3n(C[C@H](O)[C@H](O)[C@H](O)COP(=O)(O)OP(=O)(O)OC[C@H]3O[C@@H](n4cnc5c(N)ncnc54)[C@H](O)[C@@H]3O)c2cc1C; FALSE
CC(C)CCCCCCc1ccc(O)cc1; FALSE
c1ccc2c(c1)Sc1ccccc1N2CCN1CCCC1; TRUE

Task: What did the test return for F[Si-2](F)(F)(F)(F)F ?
Result: FALSE

Task: What did the test return for CCCCCCCCCCCC(=O)N(CCO)CCO ?
Result: FALSE

Task: What did the test return for CC/C=C\C/C=C\C/C=C\CCCCCCCC(=O)O ?
Result: FALSE

Task: What did the test return for CCCCO ?
Result: FALSE

Task: What did the test return for O=C(CCCN1CCC(C(=O)c2ccc(F)cc2)CC1)c1ccc(F)cc1 ?
Result: FALSE

Task: What did the test return for CN1CCC(OC(=O)C(Oc2ccc(Cl)cc2)Oc2ccc(Cl)cc2)CC1 ?
Result: FALSE

Task: What did the test return for CCCc1nc(C(C)(C)O)c(C(=O)OCc2oc(=O)oc2C)n1Cc1ccc(-c2ccccc2-c2nn[nH]n2)cc1 ?
Result: FALSE

Task: What did the test return for Cc1cccc(Nc2ncccc2C(=O)O)c1C ?
Result: FALSE

###

Tested on: astro
ASSAY_PROTOCOL: Drug repurposing screens with cells derived from glioblastoma tumor samples (AID 1345199); also: nearly all actives have a fitted effect of over 40% in size
ASSAY_SETUP: viability, ATP luminescence, 48 h; series mostly up to 45.9 µM
Protocol: CD133+ cells were isolated from GBM patient biopsies and cultured as neurospheres. Neurospheres from four patients were used to screen the NCATS pharmaceutical collection (NPC) library of approved drugs and bioactive compounds. […] The neurospheres were incubated with drugs for 48 hours in 1536-well format, then assayed with an ATP content cell viability assay. […]
Inconclusive results are not listed. Calls of active or inactive are those of the source. Calls follow the shape of the dose curve; as a rule, active = well fitted inhibition curve with a large enough effect; inconclusive = small, poorly fitted or top-dose-only effect; inactive = flat fitted curve, though single readings scatter.
Hi! Could you answer with just one of these? 1 (active), 0 (inactive)

These recorded examples may help you get a feel for the data.
CN(C)CCCSc1ccccc1NC(=O)/C=C/c1ccccc1; 0
CC(C)(C)NC[C@H](O)COc1ccccc1C1CCCC1; 0
CC(C)[C@H](N)C(=O)OCC(CO)OCn1cnc2c(=O)[nH]c(N)nc21 (stereo not given in full); 0

Task: What did the test return for CO/N=C(/C(=O)N[C@@H]1C(=O)N2C(C(=O)O)=C(COC(N)=O)CS[C@H]12)c1ccco1 ?
Result: 0

Task: What did the test return for COc1ccc2c(c1)OC(C)(C)C(c1ccccc1)C2c1ccc(OCCN2CCCC2)cc1 (stereo not given) ?
Result: 1

Task: What did the test return for ClC(Cl)Cl ?
Result: 0

Task: What did the test return for CC[C@H](CC[C@@H](C)[C@H]1CC[C@H]2[C@@H]3CC=C4C[C@@H](O)CC[C@]4(C)[C@H]3CC[C@]12C)C(C)C ?
Result: 0

Task: What did the test return for OC[C@H]1O[C@@H](O[C@H]2[C@H](O)[C@@H](O)[C@H](O)O[C@@H]2CO)[C@H](O)[C@@H](O)[C@@H]1O ?
Result: 0

Task: What did the test return for OCCCNc1ccccc1 ?
Result: 0

Task: What did the test return for CC(C)[C@@H](N)C(=O)O ?
Result: 0

Just for reference, PubChem BioAssay (NCATS) is where these values come from.
